Taken from paper PMC12416549.

# measurementTarget: T1, TNFR1 (Homo sapiens, UniProt P19438)
# T1 chain: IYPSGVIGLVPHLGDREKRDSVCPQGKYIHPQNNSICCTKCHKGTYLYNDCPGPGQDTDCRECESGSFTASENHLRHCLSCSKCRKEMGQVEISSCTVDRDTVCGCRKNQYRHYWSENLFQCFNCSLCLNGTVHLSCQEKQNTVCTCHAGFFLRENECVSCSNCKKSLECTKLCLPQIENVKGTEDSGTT
# assayProtocol: yeast display SC50
assayEndpoint: apparent Kd (screen)
Lab note: write values as number then unit, every time.

Here are 2 binders together with their reported answers.
For record E62N (designed binder) SMEEEVEKAAKEYEKKKKEAIEKHLEKLKAKDKEAAERFLKELEEAAKEYAKDEAKTMSEENAKRRAKKYKEKVLLSELSEEEQKEIKEAEEKLVRTILKYVEEAAK the listed apparent Kd (screen) is 0.49 nM

For record L40H (designed binder) SMEEEVEKAAKEYEKKKKEAIEKHLEKLKAKDKEAAERFHKELEEAAKEYAKDEAKTMSEEEAKRRAKKYKEKVLLSELSEEEQKEIKEAEEKLVRTILKYVEEAAK the listed apparent Kd (screen) is 0.49 nM

---
For record K31L (designed binder) SMEEEVEKAAKEYEKKKKEAIEKHLEKLKALDKEAAERFLKELEEAAKEYAKDEAKTMSEEEAKRRAKKYKEKVLLSELSEEEQKEIKEAEEKLVRTILKYVEEAAK the listed apparent Kd (screen) is 0.49 nM
